Data origin, for the record: patent US20240208992A1

- system.tested: human F508del-CFTR (Homo sapiens, UniProt P13569, DEL508-508)
- Sequence (P13569 with tags, fused parts or gaps DEL508-508): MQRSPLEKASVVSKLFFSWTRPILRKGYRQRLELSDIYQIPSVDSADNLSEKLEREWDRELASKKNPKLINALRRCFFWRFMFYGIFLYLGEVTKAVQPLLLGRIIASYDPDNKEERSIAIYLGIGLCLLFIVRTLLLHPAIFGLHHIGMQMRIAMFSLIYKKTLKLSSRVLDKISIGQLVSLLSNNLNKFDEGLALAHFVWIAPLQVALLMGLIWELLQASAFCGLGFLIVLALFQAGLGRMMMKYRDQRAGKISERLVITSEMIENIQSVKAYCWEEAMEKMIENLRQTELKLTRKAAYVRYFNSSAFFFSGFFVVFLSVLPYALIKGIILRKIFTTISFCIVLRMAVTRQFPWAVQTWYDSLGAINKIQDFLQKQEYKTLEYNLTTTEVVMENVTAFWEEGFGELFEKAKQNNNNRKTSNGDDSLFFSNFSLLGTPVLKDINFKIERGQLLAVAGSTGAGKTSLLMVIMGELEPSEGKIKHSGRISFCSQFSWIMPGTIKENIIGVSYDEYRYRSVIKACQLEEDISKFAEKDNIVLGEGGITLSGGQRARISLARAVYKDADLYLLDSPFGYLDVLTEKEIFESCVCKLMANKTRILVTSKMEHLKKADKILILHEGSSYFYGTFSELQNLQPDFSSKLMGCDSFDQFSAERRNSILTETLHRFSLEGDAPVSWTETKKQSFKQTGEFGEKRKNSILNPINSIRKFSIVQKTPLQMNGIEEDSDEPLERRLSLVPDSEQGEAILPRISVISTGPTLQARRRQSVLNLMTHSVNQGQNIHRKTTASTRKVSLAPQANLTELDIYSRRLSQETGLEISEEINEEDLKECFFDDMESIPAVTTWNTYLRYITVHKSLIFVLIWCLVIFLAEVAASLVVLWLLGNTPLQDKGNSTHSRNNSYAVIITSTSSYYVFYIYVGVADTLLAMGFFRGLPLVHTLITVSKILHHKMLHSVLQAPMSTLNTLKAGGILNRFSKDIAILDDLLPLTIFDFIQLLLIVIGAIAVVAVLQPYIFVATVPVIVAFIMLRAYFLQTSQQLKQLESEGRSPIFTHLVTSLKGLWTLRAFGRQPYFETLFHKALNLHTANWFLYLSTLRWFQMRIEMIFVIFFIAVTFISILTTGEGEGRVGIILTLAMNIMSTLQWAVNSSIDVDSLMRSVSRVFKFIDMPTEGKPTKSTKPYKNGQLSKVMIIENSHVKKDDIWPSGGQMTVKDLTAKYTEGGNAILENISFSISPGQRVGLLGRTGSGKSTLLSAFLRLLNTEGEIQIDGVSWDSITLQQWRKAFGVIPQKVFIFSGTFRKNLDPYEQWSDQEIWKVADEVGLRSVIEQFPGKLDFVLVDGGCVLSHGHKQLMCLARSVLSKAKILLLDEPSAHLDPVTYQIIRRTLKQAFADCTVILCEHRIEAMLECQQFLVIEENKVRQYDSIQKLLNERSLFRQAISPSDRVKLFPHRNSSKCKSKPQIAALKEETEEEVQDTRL
- assay.method.text: F508del-CFTR cell surface expression (corrector activity), DiscoveRx ß-galactosidase complementation chemiluminescence assay in recombinant U2OS cell line
- stated.conditions: U2OS, in relation to the Emax of the corrector lumacaftor (=100%); U2OS cell line, 16h compound incubation; arithmetic mean values
Please assign not satisfied whenever Emax is at or above 200%, and satisfied whenever it is below.

Problem: For `COc1cccc(CCNC(=O)[C@@H]2CC(=O)N(C)[C@@H](CC(C)C)C(=O)N(CCC3CCCCC3)CC(=O)N[C@H](Cc3ccccc3)COc3cc(OC)cc(OC)c3C(=O)N2)c1` , is the recorded Emax below the cut-off of 200%?
Result: not satisfied

Problem: For `CC(C)C[C@H]1C(=O)N2CCCC[C@@H]2C(=O)N[C@H](Cc2ccccc2)COc2cnc3ccccc3c2C(=O)N[C@H](C(=O)NCCc2nc(-c3ccccc3OC(F)(F)F)no2)CC(=O)N1C` , is the recorded Emax below the cut-off of 200%?
Result: satisfied

Problem: For `CC(C)C[C@H]1C(=O)N(C)C2(CC2)C(=O)N[C@H](Cc2ccccc2)COc2cnc3ccc(F)cc3c2C(=O)N[C@H](C(=O)NCCc2cccc(C(F)(F)F)c2)CC(=O)N1C` , is the recorded Emax below the cut-off of 200%?
Result: satisfied

Problem: For `CC(C)C[C@H]1C(=O)N(C)C2(CC2)C(=O)N[C@H](Cc2ccccc2)COc2cnc3ccccc3c2C(=O)N[C@H](C(=O)NCCc2noc(C(C)(C)C)n2)CC(=O)N1C` , is the recorded Emax below the cut-off of 200%?
Result: not satisfied

Problem: For `COc1cccc(CCNC(=O)[C@@H]2CC(=O)N(C)[C@@H](C)C(=O)N(CCC3CCCCC3)CC(=O)N[C@H](Cc3ccccc3)COc3cccc(OC)c3C(=O)N2)c1` , is the recorded Emax below the cut-off of 200%?
Result: satisfied

Problem: For `CC(C)C[C@H]1C(=O)N2CCCC[C@@H]2C(=O)N[C@H](Cc2ccccc2)COc2cnc3ccccc3c2C(=O)N[C@H](C(=O)NCCc2noc(C3CC3)n2)CC(=O)N1C` , is the recorded Emax below the cut-off of 200%?
Result: not satisfied

Problem: For `CC(C)C[C@H]1C(=O)N2CCCC[C@@H]2C(=O)N[C@H](Cc2ccccc2)COc2cnc3ccccc3c2C(=O)N[C@H](C(=O)NCCc2nnc(-c3ccccc3OC(F)(F)F)[nH]2)CC(=O)N1C` , is the recorded Emax below the cut-off of 200%?
Result: satisfied

Problem: For COc1ccc(CCNC(=O)[C@@H]2CC(=O)N(C)[C@@H](CC(C)C)C(=O)N(CCC3CCCCC3)CC(=O)N[C@H](Cc3ccccc3)COc3cccc(OC)c3C(=O)N2)cc1 (racemic) , is the recorded Emax below the cut-off of 200%?
Result: satisfied

* * *

- system.tested: human F508del-CFTR (Homo sapiens, UniProt P13569, DEL508-508)
- assay.method.text: F508del-CFTR cell surface expression (corrector activity), DiscoveRx ß-galactosidase complementation chemiluminescence assay in recombinant U2OS cell line
- stated.conditions: U2OS, in relation to Emax of corrector lumacaftor (=100%); arithmetic mean values
Mark 1 for reported Emax of 200% or greater; mark 0 for anything smaller.

Problem: Does Emax meet or surpass 200% for `COc1cccc(CCNC(=O)[C@@H]2CC(=O)N(C)[C@@H](CC(C)C)C(=O)N(C)CC(=O)N[C@H](Cc3ccccc3)COc3nc4ccccn4c3C(=O)N2)c1` ?
Result: 0

Problem: Does Emax meet or surpass 200% for `COc1cc(CCNC(=O)[C@@H]2CC(=O)N(C)[C@@H](CC(C)C)C(=O)N(C)[C@H](C)C(=O)N[C@H](Cc3ccccc3)COc3ccnc(OC)c3C(=O)N2)on1` ?
Result: 1

Problem: Does Emax meet or surpass 200% for `CC(C)C[C@H]1C(=O)N2CCN(c3ccccc3)C[C@H]2C(=O)N[C@H](Cc2ccccc2)COc2cnc3ccc(F)cc3c2C(=O)N[C@H](C(=O)NCCc2nc(C3CC3)no2)CC(=O)N1C` ?
Result: 1

Problem: Does Emax meet or surpass 200% for `COc1noc(CCNC(=O)[C@@H]2CC(=O)N(C)[C@@H](CC(C)C)C(=O)N(C)[C@H](C)C(=O)N[C@H](Cc3ccccc3)COc3ccnc(OC)c3C(=O)N2)c1F` ?
Result: 1

Problem: Does Emax meet or surpass 200% for `COc1cccc(CCNC(=O)[C@@H]2CC(=O)N(C)[C@@H](CC(C)C)C(=O)N3CCCC[C@H]3C(=O)N[C@H](Cc3ccccc3)COc3ccc4nc(C)oc4c3C(=O)N2)c1` ?
Result: 0

* * *

For each of the compounds below, state its Emax.
- system.tested: human F508del-CFTR (Homo sapiens, UniProt P13569, DEL508-508)
- assay.method.text: F508del-CFTR cell surface expression (corrector activity), DiscoveRx ß-galactosidase complementation chemiluminescence assay in recombinant U2OS cell line
- stated.conditions: U2OS, in relation to Emax of corrector lumacaftor (=100%); arithmetic mean values
The response must be a number in % with no trailing unit.

Problem: Fill blank: measured Emax of the compound `CC(C)C[C@H]1C(=O)N2CCN(C3CC3)C[C@@H]2C(=O)N[C@H](Cc2ccccc2)COc2cnc3ccccc3c2C(=O)N[C@H](C(=O)NCCc2cccc(OC(F)F)c2)CC(=O)N1C` is ____.
Result: 280

Problem: Fill blank: measured Emax of the compound `COc1cccc(CCNC(=O)[C@@H]2CC(=O)N(C)[C@@H](CC(C)C)C(=O)N3CCN(C(=O)OC4CCOCC4)C[C@@H]3C(=O)N[C@H](Cc3ccccc3)COc3ccc4ccccc4c3C(=O)N2)c1` is ____.
Result: 252

Problem: Fill blank: measured Emax of the compound `CC(C)C[C@H]1C(=O)N2CCCC[C@@H]2C(=O)N[C@H](Cc2ccccc2)COc2cnc3cccc(F)c3c2C(=O)N[C@H](C(=O)NCCc2noc(C3CC3)n2)CC(=O)N1C` is ____.
Result: 330

Problem: Fill blank: measured Emax of the compound `COc1cccc(CCNC(=O)[C@@H]2CC(=O)N(C)[C@@H](CC(C)C)C(=O)N3CCCC[C@@H]3C(=O)N[C@H](Cc3ccccc3)COc3cnc4ccc(Cl)cc4c3C(=O)N2)c1` is ____.
Result: 337

Problem: Fill blank: measured Emax of the compound COc1cccc(CCNC(=O)[C@@H]2CC(=O)N(C)[C@@H](CC(C)C)C(=O)N(C)[C@@H](COC(C)(C)C)C(=O)N[C@H](Cc3ccccc3)COc3ccc4ccccc4c3C(=O)N2)c1 (mixture of isomers) is ____.
Result: 348

* * *

For each of the compounds below, state its pEC50.
- system.tested: human F508del-CFTR (Homo sapiens, UniProt P13569, DEL508-508)
- assay.method.text: F508del-CFTR cell surface expression (corrector activity), DiscoveRx ß-galactosidase complementation chemiluminescence assay in recombinant U2OS cell line;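 note: U2OS cells co-expressing ProLink-tagged F508del-CFTR and a membrane-anchored enzyme acceptor, where more surface CFTR restores β-galactosidase activity measured by chemiluminescence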
- stated.conditions: EC50, F508del-CFTR cell surface expression, U2OS cells, 16h compound incubation; geomean values
Just the number, please; pEC50 means minus log10 of the concentration in mol/L.

Problem: Look up pEC50 with human F508del-CFTR (Homo sapiens, UniProt P13569, DEL508-508) for this compound: Cc1cc(CCNC(=O)[C@@H]2CC(=O)N(C)[C@@H](CC(C)C)C(=O)N3CCOC[C@@H]3C(=O)N[C@H](Cc3ccccc3)COc3ccc4ccccc4c3C(=O)N2)on1 [Example 608]
Result: 6.09

Problem: Look up pEC50 with human F508del-CFTR (Homo sapiens, UniProt P13569, DEL508-508) for this compound: COc1cccc(CCNC(=O)[C@@H]2CC(=O)N(C)[C@@H](CC(C)C)C(=O)N3CCN(S(C)(=O)=O)C[C@@H]3C(=O)N[C@H](Cc3ccccc3)COc3ccc4ccccc4c3C(=O)N2)c1 [Example 731]
Result: 6.42

Problem: Look up pEC50 with human F508del-CFTR (Homo sapiens, UniProt P13569, DEL508-508) for this compound: COc1cccc(CCNC(=O)[C@@H]2CC(=O)N(C)[C@@H](CC(C)C)C(=O)N3CCN(S(=O)(=O)CCN(C)C)C[C@@H]3C(=O)N[C@H](Cc3ccccc3)COc3ccc4ccccc4c3C(=O)N2)c1 [Example 735]
Result: 6.50

Problem: Look up pEC50 with human F508del-CFTR (Homo sapiens, UniProt P13569, DEL508-508) for this compound: COc1cc(CCNC(=O)[C@@H]2CC(=O)N(C)[C@@H](CC(C)C)C(=O)N(C)[C@H](Cc3nc(-c4ccc(F)cn4)no3)C(=O)N[C@H](Cc3ccccc3)COc3ccnc(OC)c3C(=O)N2)on1 [Example 783]
Result: 6.05

Problem: Look up pEC50 with human F508del-CFTR (Homo sapiens, UniProt P13569, DEL508-508) for this compound: [2H]C([2H])([2H])Oc1nc(C)cc2c1C(=O)N[C@H](C(=O)NCCc1cnn(C3CC3)n1)CC(=O)N(C)[C@@H](CC(C)C)C(=O)N1CCCC[C@@H]1C(=O)N[C@H](Cc1ccccc1)CO2 [Example 685]
Result: 6.30

Problem: Look up pEC50 with human F508del-CFTR (Homo sapiens, UniProt P13569, DEL508-508) for this compound: COc1cccc(CCNC(=O)[C@@H]2CC(=O)N(C)[C@@H](CC(C)C)C(=O)N3CCN(S(=O)(=O)c4cc(OC)ccc4F)C[C@@H]3C(=O)N[C@H](Cc3ccccc3)COc3ccc4ccccc4c3C(=O)N2)c1 [Example 740]
Result: 6.95

Problem: Look up pEC50 with human F508del-CFTR (Homo sapiens, UniProt P13569, DEL508-508) for this compound: COc1cc2c(cn1)OC[C@@H](Cc1ccccc1)NC(=O)[C@H]1CCCCN1C(=O)[C@H](CC(C)C)N(C)C(=O)C[C@@H](C(=O)NCCc1nc(C3CC3)no1)NC2=O [Example 529]
Result: 6.02

Problem: Look up pEC50 with human F508del-CFTR (Homo sapiens, UniProt P13569, DEL508-508) for this compound: COc1nc(C)cc2c1C(=O)N[C@H](C(=O)NCCc1cc(C)no1)CC(=O)N(C)[C@@H](CC(C)C)C(=O)N(C)[C@H](CC(F)F)C(=O)N[C@H](Cc1ccccc1)CO2 [Example 775]
Result: 6.06

Problem: Look up pEC50 with human F508del-CFTR (Homo sapiens, UniProt P13569, DEL508-508) for this compound: CC(C)C[C@H]1C(=O)N(C)C2(CCC2)C(=O)N[C@H](Cc2ccccc2)COc2cnc3ccc(F)cc3c2C(=O)N[C@H](C(=O)NCCc2noc(C3CC3)n2)CC(=O)N1C [Example 691]
Result: 6.70

Problem: Look up pEC50 with human F508del-CFTR (Homo sapiens, UniProt P13569, DEL508-508) for this compound: COc1cccc(CCNC(=O)[C@@H]2CC(=O)N(C)[C@@H](CC(C)C)C(=O)N3CCN(c4ccccc4)C[C@@H]3C(=O)N[C@H](Cc3ccccc3)COc3ccnc(OC)c3C(=O)N2)c1 [Example 538]
Result: 7.10
